tested on: citric acid-induced cough; assay: Citric acid-induced cough in guinea pigs (anti-tussive activity in vivo); design: species or system Male Hartley Guinea pigs; conditions: 20 mg ip; 0.4M citric acid, 30 min pre-treatment; cough inhibition vs control
metric: % Inhibition (%)

INSERT INTO measurements (molecule, measurement_unit, test_result) VALUES
  ('O=C(O)C1=CCCNC1 [Compound 4]', '%', 67.69),
  ('O=C(O)C1CCCNC1 (stereo not shown) [Compound 2, 3-piperidinecarboxylic acid]', '%', 28.36),
  ('O=C(O)[C@@H]1CNCC[C@@H]1O (relative stereo) [Compound 6, cis4-hydroxy-3-piperidinecarboxylic acid]', '%', 35.82),
  ('O=C(O)CC1CCN(CCC=C(c2ccccc2)c2ccccc2)C1 (stereo not shown) [Compound 1]', '%', 53.13);
